assay_target: Vasopressin V2 receptor (Rattus norvegicus, UniProt Q00788)
Sequence (Q00788 whole entry): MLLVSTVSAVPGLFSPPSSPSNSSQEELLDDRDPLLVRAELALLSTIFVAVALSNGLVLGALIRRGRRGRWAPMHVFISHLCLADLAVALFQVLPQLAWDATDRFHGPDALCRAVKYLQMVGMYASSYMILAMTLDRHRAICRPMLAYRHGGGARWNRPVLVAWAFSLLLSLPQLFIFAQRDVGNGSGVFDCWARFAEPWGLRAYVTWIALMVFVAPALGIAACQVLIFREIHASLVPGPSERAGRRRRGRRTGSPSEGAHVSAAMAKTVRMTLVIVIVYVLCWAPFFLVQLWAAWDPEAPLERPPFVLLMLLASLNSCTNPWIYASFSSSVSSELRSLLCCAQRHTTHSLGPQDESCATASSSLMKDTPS
attribute_measured: IC50 (µM)
Your answer is read as µM, so omit the unit and give the number.

Solved cases below.
>  <compound>
CC1(C)[C@@H]2CC[C@@]1(CS(=O)(=O)N1CCC3(CCc4ccccc43)CC1)[C@@H](NC(=O)NC1CN3CCC1CC3)C2 (single isomer, unassigned; isomer B)

>  <IC50 [µM]>
11

$$$$
>  <compound>
CC(=O)NCC[C@@]1(O)C[C@H]2CC[C@]1(CS(=O)(=O)N1CCC3(C=Cc4ccccc43)CC1)C2(C)C

>  <IC50 [µM]>
30

$$$$
>  <compound>
CC1(C)[C@@H]2CC[C@@]1(CS(=O)(=O)N1CCC3(CCc4ccccc43)CC1)[C@@H](NC(=O)C(CCS(C)(=O)=O)NC(=O)Cc1c[nH]cn1)C2 (stereo partly drawn)

>  <IC50 [µM]>
0.28

$$$$
>  <compound>
CC1(C)[C@@H]2CC[C@@]1(CS(=O)(=O)N1CCC3(CCc4ccccc43)CC1)[C@@H](NC(=O)NC1CN3CCC1CC3)C2 (single isomer, unassigned; isomer A)

>  <IC50 [µM]>
8.7

$$$$
>  <compound>
CC1(C)[C@@H]2CC[C@@]1(CS(=O)(=O)N1CCC3(C=Cc4ccccc43)CC1)[C@@](O)(CNC(=O)c1cccnc1)C2

>  <IC50 [µM]>
6.8

$$$$
>  <compound>
CC1(C)[C@@H]2CC[C@@]1(CS(=O)(=O)N1CCC3(CCc4ccccc43)CC1)[C@@H](NC(=O)C(N)CC[N+](=O)[O-])C2 (stereo partly drawn)

>  <IC50 [µM]>
3

$$$$
>  <compound>
CC1(C)[C@@H]2CC[C@@]1(CS(=O)(=O)N1CCC3(CCc4ccccc43)CC1)[C@@H](NC(=O)[C@@H](N)CCS(C)(=O)=O)C2

>  <IC50 [µM]>
2.4

$$$$
>  <compound>
CC1(C)[C@@H]2CC[C@@]1(CS(=O)(=O)N1CCC3(CCc4ccccc43)CC1)[C@@H](NC(=O)CN1CC[C@H](N)C1=O)C2

>  <IC50 [µM]>
8.4

$$$$

In: Which IC50 is reported for this compound? C[S+]([O-])CCC(N)C(=O)N[C@H]1C[C@H]2CC[C@]1(CS(=O)(=O)N1CCC3(CCc4ccccc43)CC1)C2(C)C (stereo partly drawn)
Out: 7.4

In: # iterate: CN(C)CC(=O)NCC(=O)N[C@H]1C[C@H]2CC[C@]1(CS(=O)(=O)N1CCC3(CCc4ccccc43)CC1)C2(C)C
Out: 3

Provenance of the data: ChEMBL document CHEMBL1126550
